Experiment: Acute toxicity in ICR mouse at 200 to 488.3 mg/kg, ip
Assay type: organism-based
Conditions: in vivo
QUANTITY: LD50 (mg/kg)

- COc1ccc(Oc2c(/C=N\OCc3c(Cl)c(-c4ccc(Cl)cc4)nn3C)c(C)nn2C)cc1: 350

---

Test: Acute toxicity in ICR mouse assessed as survival at 250 mg/kg, ip measured on day 14
Assay type: organism-based
Conditions: in vivo
QUANTITY: survival at 14 day (%)

* COc1ccc(Oc2c(/C=N\OCc3c(Cl)c(-c4ccc(Cl)cc4)nn3C)c(C)nn2C)cc1 | 70

---

Assay: Acute toxicity in ICR mouse assessed as survival at 312.5 mg/kg, ip measured on day 14
Assay type: organism-based
Conditions: in vivo
QUANTITY: survival at 14 day (%)

• COc1ccc(Oc2c(/C=N\OCc3c(Cl)c(-c4ccc(Cl)cc4)nn3C)c(C)nn2C)cc1 = 60
